# TESTED_ON: human BRD4 bromodomain II (Homo sapiens, UniProt O60885)
# Construct: human BRD4 bromodomain II [based on Genbank NM_058243, residues 349-460]; host or cells: E. coli
# EXPERIMENT_DESCRIPTION: Bromodomain binding assay (AlphaScreen), BRD4 BDII
# ASSAY_CONTEXT: AlphaScreen assay, Table C2; read-out: BRD4 BDII IC50
pIC50: −log10 of the molar value.
Recorded pIC50 for the following compounds
VALUE_TYPE: pIC50

INSERT INTO results (chemical_structure, result) VALUES
  ('CC(=O)Nc1ccc(-c2cccc(-c3cccc(N4CCC5(CCNCC5)CC4)c3)c2O)cc1F', '7.00 to 8.00'),
  ('C[C@@H]1CN(c2cc(-c3cc(F)cc(-c4ccc(N5CCN(C)C5=O)c(Cl)c4)c3O)ccn2)CCN1', '8.00 to 9.00'),
  ('Cc1cc(-c2cc(F)cc(-c3ccc(-n4ccn(C)c4=O)c(Cl)c3)c2O)cc(N2CCN(C(C)(C)C)CC2)c1', '9.00 to 11.00');

====

The following compounds are listed with their measured GI50 values.
# System: human SKM-1 acute myeloid leukemia cells
# EXPERIMENT_DESCRIPTION: SKM-1 antiproliferation cell-based assay (ATPlite)
# ASSAY_CONTEXT: Homo sapiens, SKM-1, 96 h, SKM-1 antiproliferation assay, 4 days, Table C2
VALUE_TYPE: GI50

INSERT INTO assay_data (compound, result) VALUES
  ('CC(=O)NC1(c2cccc(-c3cc(F)cc(-c4ccc(-n5ccn(C)c5=O)c(Cl)c4)c3O)c2)CC1', '0.3 to 3 µM'),
  ('Cn1ccn(-c2ccc(-c3cc(F)cc(-c4ccnc(N5CCOCC5)c4)c3O)cc2Cl)c1=O', '0.03 to 0.3 µM'),
  ('CN1CCN(c2ccc(-c3cc(F)cc(-c4cc(N5CCNCC5)c(=O)n(C)c4)c3O)cc2Cl)C1=O', '0.03 to 0.3 µM'),
  ('Cc1cc(-c2cc(F)cc(-c3ccnc(N4CCNCC4)c3)c2O)cc(Cl)c1N1CCCC1=O', '0.3 to 3 µM'),
  ('Cn1ccn(-c2ccc(-c3cc(F)cc(-c4ccnc(N5CC6CNC(C6)C5)c4)c3O)cc2Cl)c1=O (stereo not shown)', '0.0003 to 0.03 µM'),
  ('CN1CCN(c2ccc(-c3cc(F)cc(-c4ncc(N5CCOCC5)cc4N4CCNCC4)c3O)cc2Cl)C1=O', '≥ 3 µM'),
  ('CC(C)N1CCN(c2cc(F)cc(-c3cc(F)cc(-c4ccc(-n5ccn(C)c5=O)c(Cl)c4)c3O)c2)CC1', '0.0003 to 0.03 µM'),
  ('Cn1ccn(-c2ccc(-c3cc(F)cc(-c4cc(N5CCC(N)CC5)c5cn[nH]c5c4)c3O)cc2Cl)c1=O', '0.03 to 0.3 µM'),
  ('Cn1ccn(-c2ccc(-c3cc(F)cc(-c4cccc(N5CC[C@](C)(N)C5)c4)c3O)cc2Cl)c1=O', '0.0003 to 0.03 µM'),
  ('O=C1CCCN1c1ccc(-c2cc(Cl)cc(-c3ccnc(N4CCNCC4)c3)c2O)cc1Cl', '0.03 to 0.3 µM');

====

Below, each entry is listed with its recorded IC50.
# TESTED_ON: human BRD4 bromodomain II (Homo sapiens, UniProt O60885)
# Construct: human BRD4 bromodomain II [based on Genbank NM_058243, residues 349-460]; host or cells: E. coli
# EXPERIMENT_DESCRIPTION: Bromodomain binding assay (AlphaScreen), BRD4 BDII
# ASSAY_CONTEXT: AlphaScreen assay, Table C2; read-out: BRD4 BDII IC50
VALUE_TYPE: IC50

INSERT INTO results (molecule, value_type, result) VALUES
  ('Cc1ncc(-c2cc(F)cc(-c3ccc(N4CCN(C)C4=O)c(Cl)c3)c2O)cc1N1CCNCC1', 'IC50', '1 to 10 nM'),
  ('CN1CCN(c2ccc(-c3cc(C(F)(F)F)cc(-c4ccnc(N5CCNCC5)c4)c3O)cc2Cl)C1=O', 'IC50', '10 to 100 nM'),
  ('CC(=O)Nc1ccc(-c2cc(F)cc(-c3ccc(C#N)c(N4CCNCC4)c3)c2O)cc1F', 'IC50', '1 to 10 nM'),
  ('Cc1cc(-c2ccc(-n3ccn(C)c3=O)c(Cl)c2)c(O)c(-c2cc(N3CC[C@H](N)C3)c3nc[nH]c3c2)c1', 'IC50', '0.01 to 1 nM'),
  ('Cn1ccn(-c2ccc(-c3cc(F)cc(-c4ccnc(N5CCCC6(CCN6)C5)c4)c3O)cc2Cl)c1=O (centres unmarked)', 'IC50', '0.01 to 1 nM'),
  ('Cn1ccn(-c2ccc(-c3cc(F)cc(-c4ccnc(N5CC6CC6(O)C5)c4)c3O)cc2Cl)c1=O (centres unmarked)', 'IC50', '1 to 10 nM'),
  ('CC(=O)Nc1ccc(-c2cccc(-c3cnc(N4CCNCC4)o3)c2O)cc1F', 'IC50', '10 to 100 nM'),
  ('COc1cc(-c2cccc(-c3cc(N4CCNCC4)no3)c2O)ccc1NC(C)=O [Example 23, 2,2,2-trifluoroacetate]', 'IC50', '> 100 nM');

====

# TESTED_ON: human BRD4 bromodomain II (Homo sapiens, UniProt O60885)
# Construct: human BRD4 bromodomain II [based on Genbank NM_058243, residues 349-460]; host or cells: E. coli
# EXPERIMENT_DESCRIPTION: Bromodomain binding assay (AlphaScreen), BRD4 BDII
# ASSAY_CONTEXT: AlphaScreen assay, Table C2; read-out: BRD4 BDII IC50
# key: entry, value: IC50
VALUE_TYPE: IC50

INSERT INTO assay_data (compound, result) VALUES
  ('Cn1ccn(-c2ccc(-c3cc(F)cc(-c4ccnc(N5CCN[C@H](CC#N)C5)c4)c3O)cc2Cl)c1=O [Example 698]', '0.01 to 1 nM'),
  ('CC(=O)NCc1cc(-c2cccc(-c3ccc(N4CCN(C)C4=O)c(Cl)c3)c2O)cc(N2CCNCC2)c1 [Example 327]', '1 to 10 nM'),
  ('CC(C)N1CCN(c2cc(F)cc(-c3cc(F)cc(-c4ccc(-n5ccn(C)c5=O)c(Cl)c4)c3O)c2)CC1 [Example 713]', '0.01 to 1 nM'),
  ('CC(=O)N1CCC(=O)N(C)c2cc(-c3cccc(-c4cc(N5CCNCC5)no4)c3O)ccc21 [Example 38]', '> 100 nM'),
  ('Cc1ncc(-c2cc(F)cc(-c3ccc(-n4ccn(C)c4=O)c(Cl)c3)c2O)cc1N1CCN(C(C)(C)C)CC1 [Example 791]', '0.01 to 1 nM'),
  ('COc1ccc(-c2cccc(-c3ccc(NC(C)=O)c(F)c3)c2O)cn1 [Example 98]', '10 to 100 nM'),
  ('Cc1ccc(-c2cc(F)cc(-c3ccc(-n4ccn(C)c4=O)c(Cl)c3)c2O)cc1C(N)=O [Example 766]', '1 to 10 nM'),
  ('C[C@@H]1CN(c2cc(-c3cc(F)cc(-c4ccc(-n5ccn(C)c5=O)c(Cl)c4)c3O)cc3c2nnn3C)CCN1 [Example 605]', '0.01 to 1 nM'),
  ('[2H]C([2H])([2H])n1ccn(-c2ccc(-c3cc(F)cc(-c4ccnc(N5CCNCC5)c4)c3O)cc2Cl)c1=O [Example 409]', '1 to 10 nM'),
  ('Cc1ncc(-c2cc(F)cc(-c3ccc(-n4ccn(C)c4=O)c(Cl)c3)c2O)cc1N1CCCN(C(C)(C)C)CC1 [Example 844]', '1 to 10 nM'),
  ('CC(=O)Nc1ccc(-c2cccc(-c3ccnc(N4CCC(O)C4)c3)c2O)cc1F (stereo not drawn) [Example 199]', '1 to 10 nM'),
  ('CC(=O)Nc1ccc(-c2cc(F)cc(-c3ccnc(N4CC5(CNC5)C4)c3)c2O)cc1F [Example 321]', '10 to 100 nM');

====

# Test system: human SKM-1 acute myeloid leukemia cells
# EXPERIMENT_DESCRIPTION: SKM-1 antiproliferation cell-based assay (ATPlite)
# ASSAY_CONTEXT: Homo sapiens, SKM-1, 96 h, SKM-1 antiproliferation assay, 4 days, Table C2
VALUE_TYPE: GI50

INSERT INTO results (chemical_structure, tested_on, value_type, result) VALUES
  ('CN1CCN(c2ccc(-c3cc(F)cc(-c4cnc(-c5ccn[nH]5)c(N5CCNCC5)c4)c3O)cc2Cl)C1=O', 'human SKM-1 acute myeloid leukemia cells', 'GI50', '30 to 300 nM'),
  ('Cn1ccn(-c2ccc(-c3cc(F)cc(-c4ccnc(N5C[C@H](O)[C@@H](F)C5)c4)c3O)cc2Cl)c1=O', 'human SKM-1 acute myeloid leukemia cells', 'GI50', '30 to 300 nM'),
  ('Cn1ccn(-c2ccc(-c3cc(F)cc(-c4ccnc(N5CCN(CCC6CC6)CC5)c4)c3O)cc2Cl)c1=O', 'human SKM-1 acute myeloid leukemia cells', 'GI50', '0.3 to 30 nM');
